# targetUnderTest: soluble guanylate cyclase (sGC) (Homo sapiens, UniProt Q02108+Q02153)
# Construct: endogenously expressing soluble guanylate cyclase (sGC); endogenous in cells; host or cells: HEK293
# Sequence (Q02153 1-619): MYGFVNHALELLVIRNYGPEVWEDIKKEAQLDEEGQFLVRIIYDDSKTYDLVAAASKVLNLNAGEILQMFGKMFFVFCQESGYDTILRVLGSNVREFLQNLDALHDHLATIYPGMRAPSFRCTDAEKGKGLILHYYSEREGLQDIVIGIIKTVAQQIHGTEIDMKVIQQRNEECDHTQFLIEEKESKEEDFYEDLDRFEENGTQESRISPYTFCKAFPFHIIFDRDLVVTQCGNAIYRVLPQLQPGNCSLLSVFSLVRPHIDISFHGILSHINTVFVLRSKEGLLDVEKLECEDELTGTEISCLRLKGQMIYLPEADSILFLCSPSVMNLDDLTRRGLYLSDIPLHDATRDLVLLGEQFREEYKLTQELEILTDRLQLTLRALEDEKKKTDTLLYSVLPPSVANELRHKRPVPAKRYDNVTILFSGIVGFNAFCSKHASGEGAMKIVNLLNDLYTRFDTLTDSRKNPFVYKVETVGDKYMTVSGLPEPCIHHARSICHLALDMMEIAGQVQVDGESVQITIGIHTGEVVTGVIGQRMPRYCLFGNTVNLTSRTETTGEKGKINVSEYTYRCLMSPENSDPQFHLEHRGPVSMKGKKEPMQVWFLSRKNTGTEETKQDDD
# Sequence (Q02108 1-690): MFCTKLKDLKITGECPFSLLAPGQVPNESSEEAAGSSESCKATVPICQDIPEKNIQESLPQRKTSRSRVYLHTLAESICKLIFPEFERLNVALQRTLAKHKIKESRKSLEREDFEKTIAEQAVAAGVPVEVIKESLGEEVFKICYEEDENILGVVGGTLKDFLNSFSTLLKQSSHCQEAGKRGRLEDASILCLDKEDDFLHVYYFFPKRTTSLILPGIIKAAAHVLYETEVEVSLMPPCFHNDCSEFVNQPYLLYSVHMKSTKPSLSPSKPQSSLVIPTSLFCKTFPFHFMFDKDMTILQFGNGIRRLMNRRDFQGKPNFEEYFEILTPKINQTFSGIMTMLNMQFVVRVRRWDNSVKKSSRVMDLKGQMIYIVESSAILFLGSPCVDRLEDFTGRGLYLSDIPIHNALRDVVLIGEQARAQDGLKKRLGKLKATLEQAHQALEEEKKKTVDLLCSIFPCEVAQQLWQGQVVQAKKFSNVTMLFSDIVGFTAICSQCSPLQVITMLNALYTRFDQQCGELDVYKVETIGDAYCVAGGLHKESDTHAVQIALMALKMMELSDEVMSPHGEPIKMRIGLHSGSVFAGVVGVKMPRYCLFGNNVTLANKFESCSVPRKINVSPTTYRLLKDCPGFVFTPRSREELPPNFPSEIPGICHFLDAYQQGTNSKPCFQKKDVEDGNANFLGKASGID
# method: sGC-HEK-cGMP assay (run with SNP incubation)
# Assay type: cell-based
# conditionParameters: concentration that would elicit 10% of the Emax in the presence of 10 μM SNP; Table 3D
measuredAttribute: HEK MEC-10

compound="COc1nc(-c2cc(-c3ccon3)n(Cc3ccccc3F)n2)ncc1F [Compound 28]" targetundertest="soluble guanylate cyclase (sGC) (Homo sapiens, UniProt Q02108+Q02153)" experimentalvalue="B (0.01 to <0.1 μM)"
compound="Nc1nc(-c2cc(-c3ccon3)n(Cc3ccccc3F)n2)ncc1NC(=O)C1(c2ccc(F)cc2)CC1 [Compound 13]" targetundertest="soluble guanylate cyclase (sGC) (Homo sapiens, UniProt Q02108+Q02153)" experimentalvalue="B (0.01 to <0.1 μM)"
compound="Fc1ccccc1Cn1nc(-c2ncc(F)c(Cl)n2)cc1-c1ccon1 [Compound 30]" targetundertest="soluble guanylate cyclase (sGC) (Homo sapiens, UniProt Q02108+Q02153)" experimentalvalue="D (1 to <10 μM)"
compound="CN(C)S(=O)(=O)c1cnc(-c2cc(-c3ccon3)n(Cc3ccccc3F)n2)[nH]c1=O [Compound 22]" targetundertest="soluble guanylate cyclase (sGC) (Homo sapiens, UniProt Q02108+Q02153)" experimentalvalue="D (1 to <10 μM)"

====

# targetUnderTest: soluble guanylate cyclase (sGC) (Homo sapiens, UniProt Q02108+Q02153)
# Construct: endogenously expressing soluble guanylate cyclase (sGC); endogenous in cells; host or cells: HEK293
# method: sGC-HEK-cGMP assay (run with SNP incubation)
# Format: cell-based
# conditionParameters: in the presence of 10 μM SNP; Table 3E; read-out: HEK assay EC50
measuredAttribute: EC50

A selection of reference data follows.
molecule="Oc1nc(-c2cc(-c3ccon3)n(Cc3cccc(F)c3F)n2)ncc1Cl [Compound 76]" experimentalvalue="60 to 100 µM"
molecule="Nc1ccnc(-c2cc(-c3ccon3)n(Cc3ccc(F)cc3F)n2)n1 [Compound 71]" experimentalvalue="60 to 100 µM"

So, Nc1ccnc(-c2cc(-c3ccon3)n(Cc3cc(F)ccc3F)n2)n1 [Compound 73] ? Its EC50 was 60 to 100 µM

Entry O=c1[nH]c(-c2cc(-c3ncon3)n(Cc3cc(F)ccc3F)n2)ncc1F [Compound 75] , EC50 reported as 40 to 60 µM

====

# targetUnderTest: soluble guanylate cyclase (sGC) (Homo sapiens, UniProt Q02108+Q02153)
# Construct: endogenously expressing soluble guanylate cyclase (sGC); endogenous in cells; host or cells: HEK293
# Sequence (Q02153 1-619): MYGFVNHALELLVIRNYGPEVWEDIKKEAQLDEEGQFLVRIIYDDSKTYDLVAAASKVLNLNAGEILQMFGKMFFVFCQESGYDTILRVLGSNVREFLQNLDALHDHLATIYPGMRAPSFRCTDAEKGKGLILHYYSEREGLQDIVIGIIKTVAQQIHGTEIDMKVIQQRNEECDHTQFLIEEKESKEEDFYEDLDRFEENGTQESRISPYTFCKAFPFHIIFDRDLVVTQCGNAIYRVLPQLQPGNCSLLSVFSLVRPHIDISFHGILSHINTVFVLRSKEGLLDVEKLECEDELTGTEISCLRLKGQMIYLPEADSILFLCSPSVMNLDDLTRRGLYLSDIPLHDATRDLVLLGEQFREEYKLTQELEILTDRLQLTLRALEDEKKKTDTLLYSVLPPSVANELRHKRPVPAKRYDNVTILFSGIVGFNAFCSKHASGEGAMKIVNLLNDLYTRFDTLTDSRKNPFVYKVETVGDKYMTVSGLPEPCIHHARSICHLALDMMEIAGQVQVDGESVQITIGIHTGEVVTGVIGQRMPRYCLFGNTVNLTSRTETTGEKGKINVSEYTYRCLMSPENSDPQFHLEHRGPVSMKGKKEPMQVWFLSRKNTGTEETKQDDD
# Sequence (Q02108 1-690): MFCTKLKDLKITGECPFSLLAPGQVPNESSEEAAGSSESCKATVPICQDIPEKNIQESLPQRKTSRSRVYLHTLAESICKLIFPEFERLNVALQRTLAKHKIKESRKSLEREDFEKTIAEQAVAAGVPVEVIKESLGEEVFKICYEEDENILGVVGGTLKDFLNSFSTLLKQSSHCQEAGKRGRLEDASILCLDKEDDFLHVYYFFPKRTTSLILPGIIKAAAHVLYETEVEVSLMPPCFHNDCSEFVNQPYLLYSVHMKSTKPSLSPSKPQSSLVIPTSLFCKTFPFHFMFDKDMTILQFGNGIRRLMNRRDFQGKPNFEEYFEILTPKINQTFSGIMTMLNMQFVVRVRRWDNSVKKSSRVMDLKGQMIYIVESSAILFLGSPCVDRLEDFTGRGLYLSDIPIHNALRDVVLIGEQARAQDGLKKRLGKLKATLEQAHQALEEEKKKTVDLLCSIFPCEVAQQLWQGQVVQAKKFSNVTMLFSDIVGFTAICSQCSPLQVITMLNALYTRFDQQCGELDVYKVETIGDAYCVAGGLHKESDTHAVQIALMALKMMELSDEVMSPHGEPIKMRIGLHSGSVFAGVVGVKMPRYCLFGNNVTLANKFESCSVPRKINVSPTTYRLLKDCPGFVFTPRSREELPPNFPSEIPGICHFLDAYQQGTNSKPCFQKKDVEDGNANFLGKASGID
# method: sGC-HEK-cGMP assay (run with SNP incubation)
# Assay type: cell-based
# conditionParameters: in the presence of 10 μM SNP; Table 3D; read-out: HEK assay EC50
measuredAttribute: EC50

Look over these answered cases.
chemicalsmiles=O=c1[nH]c(-c2cc(-c3ccon3)n(Cc3ccccc3F)n2)nc(Cl)c1Cl experimentalvalue="40 to 60 µM"
chemicalsmiles=Fc1ccccc1Cn1nc(-c2ncccn2)c(F)c1-c1ccon1 experimentalvalue="60 to 100 µM"
chemicalsmiles=Oc1nc(-c2cc(-c3ncco3)n(Cc3ccccc3F)n2)ncc1Sc1ccccc1 experimentalvalue="20 to 40 µM"
chemicalsmiles=O=c1[nH]c(-c2cc(-c3ccon3)n(Cc3cccnc3F)n2)ncc1F experimentalvalue="40 to 60 µM"

Item: "Fc1ccccc1Cn1nc(-c2ncc(Br)c(Cl)n2)cc1-c1ccon1" | EC50: 60 to 100 µM

What the record says about "Nc1nc(-c2cc(-c3ccon3)n(Cc3ccccc3F)n2)ncc1NC(=O)C1(c2ccc(F)cc2)CC1" : EC50 is < 20 µM

Entry "O=c1[nH]c(-c2nn(Cc3ccccc3F)c(-c3ccon3)c2F)ncc1F" — recorded EC50 = < 20 µM

The compound listed as "Nc1nc(-c2cc(-c3ccon3)n(Cc3ccccc3F)n2)ncc1NC(=O)C1(c2ccccc2)CC1" has a reported EC50 of < 20 µM
